Assay: log P by HPLC on reversed-phase C18 columns (OECD Guideline 117)
Type: physicochemical
Conditions: method [a]
READOUT: logP[a]
Answers are plain numbers.

MOLECULE: CN(C)C(=O)c1ccccc1S(=O)(=O)c1ncc(C(=O)N(C)c2cccnc2)n1C [I-A-92]
logP[a]: 1.12

MOLECULE: COc1ccccc1Sc1ncc(C(=O)N(C)c2cccnc2)n1C [I-A-72]
logP[a]: 1.59

MOLECULE: CN(C(=O)c1cnc(SCC(=O)O)n1C)c1cccnc1 [I-A-29]
logP[a]: 0.28

// each listed molecule needs a value for logP[a]
1. CN(C(=O)c1cnc(SC2CCCCC2)n1C)c1cccnc1 [I-A-17]
2. CN(C(=O)c1cnc(SCCSCC(F)(F)F)n1C)c1cccnc1 [I-A-50]
3. CN(C(=O)c1c(Br)nc(Sc2ncccn2)n1C)c1cccnc1 [I-A-13]
4. CN(C(=O)c1cnc(SCc2c(Cl)cccc2Cl)n1C)c1cccnc1 [I-A-125]
5. CN(C(=O)c1cnc([S+]([O-])c2ncccn2)n1C)c1cccnc1 (centres unmarked) [I-A-97]
6. CN(C(=O)c1cnc(Sc2ccccc2[N+](=O)[O-])n1C)c1cccnc1 [I-A-16]
7. CN(C(=O)c1cnc(SCC(F)(F)C(F)F)n1C)c1cccnc1 [I-A-49]
8. Cc1cnc(Sc2ncc(C(=O)N(C)c3cccnc3)n2C)nc1 [I-A-104]

1. 1.89
2. 1.94
3. 1.25
4. 2.09
5. 0.45
6. 1.68
7. 1.55
8. 0.97

* * *

Assay: log P by HPLC on reversed-phase C18 columns (OECD Guideline 117)
Assay type: physicochemical
Conditions: pH 2.7; method [a]; read-out: logP[a]
Protocol: The log P values were determined in accordance with OECD Guideline 117 (EC Directive 92/69/EEC) by HPLC (high-performance liquid chromatography) using reversed-phase (RP) columns (C18), by the following methods: [a] The LC-MS determination in the acidic range was carried out at pH 2.7 with 0.1% aqueous formic acid and acetonitrile (contains 0.1% formic acid) as mobile phases; linear gradient from 10% acetonitrile to 95% acetonitrile. [b] […]
READOUT: chromatographic logP
Give bare numbers.

Entry CN(C(=O)c1cnc(SC(F)F)n1C)c1cccnc1 ; chromatographic logP = 0.91

* * *

Tested on: green peach aphid (Myzus persicae)
Assay: Contrasting example: Myzus persicae spray test (MYZUPE)
Assay type: in vivo
Conditions: MYZUPE, 100 g ai/ha, 5 dat
READOUT: % efficacy (%)
One number for each entry, in %.

Here's what some known entries look like.
MOLECULE: CN(C(=O)c1cnc(Sc2ncc(-c3ccccc3)n2C)n1C)c1cccnc1
TARGET ENTITY: green peach aphid (Myzus persicae)
DISPLAY UNIT: %
% efficacy: 70
//
MOLECULE: Cc1nc(Sc2ncc(C(=O)N(C)c3cccnc3)n2C)oc1C
TARGET ENTITY: green peach aphid (Myzus persicae)
DISPLAY UNIT: %
% efficacy: 90
//
MOLECULE: Cc1nnc(Sc2ncc(C(=O)N(C)c3cccnc3)n2C)o1
TARGET ENTITY: green peach aphid (Myzus persicae)
DISPLAY UNIT: %
% efficacy: 90
//
MOLECULE: CN(C(=O)c1cnc([S+]([O-])c2cccc(C(F)(F)F)c2)n1C)c1ccc[n+]([O-])c1 (stereo not drawn)
TARGET ENTITY: green peach aphid (Myzus persicae)
DISPLAY UNIT: %
% efficacy: 90
//
MOLECULE: CN(C(=O)c1cnc(SC2COC2)n1C)c1cccnc1
TARGET ENTITY: green peach aphid (Myzus persicae)
DISPLAY UNIT: %
% efficacy: 90

// each listed molecule needs a value for % efficacy
1. CN(C(=O)c1cnc(Sc2nnc(C(F)F)n2C)n1C)c1cccnc1
2. CCn1c(Sc2ncc(C(=O)N(C)c3cccnc3)n2C)nnc1C(F)(F)F
3. CN(C(=O)c1cnc(SCCSCC(F)(F)F)n1C)c1cccnc1
4. CN(C(=O)c1cnc(Sc2nccn2C)n1C)c1cccnc1
5. CN(C(=O)c1cnc(Sc2nc3ccccc3n2C)n1C)c1cccnc1

1: 90; 2: 90; 3: 100; 4: 90; 5: 100

// each listed molecule needs a value for % efficacy
1. CN(C(=O)c1cnc(SCCC(F)(F)F)n1C)c1cccnc1
2. CN(C(=O)c1cnc(Sc2nnc(C(F)(F)F)n2C)n1C)c1cccnc1

[90, 90]

* * *

Test: log P by HPLC on reversed-phase C18 columns (OECD Guideline 117);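 on logP[b]: method b is the neutral LC-MS method at pH 7.8 with ammonium hydrogencarbonate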
Type: physicochemical
Conditions: method [b]
Consider the following compounds; for each one, report its logP[b].
Numbers only.

COMPOUND: CN(C(=O)c1cnc(Sc2cc(Cl)c(Cl)cc2Cl)n1C)c1cccnc1 [I-A-56]
logP[b]: 2.92

COMPOUND: CCCSc1ncc(C(=O)N(C)c2cccnc2)n1C [I-A-21]
logP[b]: 1.60

COMPOUND: CN(C(=O)c1cnc(Sc2nnc(-c3ccccc3)s2)n1C)c1cccnc1 [I-A-140]
logP[b]: 1.96

COMPOUND: CCn1c(C(=O)N(C)c2cccnc2)cnc1Sc1ncccn1 [I-A-146]
logP[b]: 1.27

// each listed compound needs a value for logP[b]
1. CC(C)=CCSc1ncc(C(=O)N(C)c2cccnc2)n1C [I-A-35]
2. CN(C(=O)c1cnc(Sc2cc(Cl)ccc2Cl)n1C)c1cccnc1 [I-A-60]

1: 1.96; 2: 2.58

// each listed compound needs a value for logP[b]
1. CN(C(=O)c1cnc(SC2COC2)n1C)c1cccnc1 [I-A-54]
2. CN(C(=O)c1cnc(Sc2nc3ccccc3n2C)n1C)c1cccnc1 [I-A-134]
3. C=CCSc1ncc(C(=O)N(C)c2cccnc2)n1C [I-A-27]

1. 0.98
2. 1.56
3. 1.40

Entry CN(C(=O)c1cnc(SCc2nccn2C)n1C)c1cccnc1 [I-A-118] ; logP[b] = 0.89

* * *

Consider the following molecules; for each one, report its logP[a].
Experiment: log P by HPLC on reversed-phase C18 columns (OECD Guideline 117)
Assay type: physicochemical
Conditions: method [a]
Numbers only.

Here's what some known entries look like.
MOLECULE: COc1cc(OC)nc(CSc2ncc(C(=O)N(C)c3cccnc3)n2C)n1
READOUT: logP[a]
NUMBER: 1.41
//
MOLECULE: CCN(C(=O)c1cnc(SC)n1C)c1cccnc1
READOUT: logP[a]
NUMBER: 0.80
//
MOLECULE: CN(C(=O)c1cnc(S(=O)(=O)c2ccc([N+](=O)[O-])cc2)n1C)c1cccnc1
READOUT: logP[a]
NUMBER: 1.58
//
MOLECULE: CSCCSc1ncc(C(=O)N(C)c2cccnc2)n1C
READOUT: logP[a]
NUMBER: 1.23
//
MOLECULE: Cc1cnc(Sc2ncc(C(=O)N(C)c3cccnc3)n2C)nc1C
READOUT: logP[a]
NUMBER: 1.23
//
MOLECULE: CN(C(=O)c1cnc(SCC(N)=O)n1C)c1cccnc1
READOUT: logP[a]
NUMBER: 0.11
//
MOLECULE: CN(C(=O)c1cnc(SCc2ccco2)n1C)c1cccnc1
READOUT: logP[a]
NUMBER: 1.34
//
MOLECULE: CN(C)C(=O)c1ccccc1Sc1ncc(C(=O)N(C)c2cccnc2)n1C
READOUT: logP[a]
NUMBER: 1.17

// each listed molecule needs a value for logP[a]
1. Cc1nnc(Sc2ncc(C(=O)N(C)c3cccnc3)n2C)o1
2. CN(C(=O)c1cnc(SCc2cncn2C)n1C)c1cccnc1
3. COC(=O)CSc1ncc(C(=O)N(C)c2cccnc2)n1C
4. CN(C(=O)c1cnc(S(=O)(=O)c2ccc(Cl)c(C(F)(F)F)c2)n1C)c1cccnc1
5. CN(C(=O)c1cnc(SC2COC2)n1C)c1cccnc1
6. CN(C(=O)c1cnc([S+]([O-])c2ccc(Cl)c(C(F)(F)F)c2)n1C)c1cccnc1 (centres unmarked)
7. CCSc1ncc(C(=O)Nc2cccnc2)n1C
8. CN(C(=O)c1cnc([S+]([O-])c2ccccn2)n1C)c1cccnc1 (centres unmarked)

0.62
0.20
0.88
2.56
0.63
2.16
0.71
0.59

* * *

Assay: log P by HPLC on reversed-phase C18 columns (OECD Guideline 117);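 on logP[b]: method b is the neutral LC-MS method at pH 7.8 with ammonium hydrogencarbonate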
Format: physicochemical
Conditions: method [b]
READOUT: logP[b]

Here's what some known entries look like.
MOLECULE SMILES: CN(C)c1ccc(Sc2ncc(C(=O)N(C)c3cccnc3)n2C)cc1
RESULT: 2.11
//
MOLECULE SMILES: COC(=O)c1cnc(Sc2ncc(C(=O)N(C)c3cccnc3)n2C)n1C
RESULT: 1.27

// each listed compound needs a value for logP[b]
1. CN(C(=O)c1cnc(Sc2ncc(C(F)(F)F)cn2)n1C)c1cccnc1
2. CN(C(=O)c1cnc(SCC(=O)O)n1C)c1cccnc1
3. CN(C(=O)c1cnc(SC2CCSCC2)n1C)c1cccnc1
4. CN(C(=O)c1cnc(Sc2ncccc2C(F)(F)F)n1C)c1cccnc1
5. CN(C(=O)c1cnc(S(=O)(=O)c2ccccn2)n1C)c1cccnc1
6. CN(C(=O)c1cnc(SCCCF)n1C)c1cccnc1
7. CCCCSc1ncc(C(=O)N(C)c2cccnc2)n1C
8. CN(C(=O)c1cnc(S(=O)(=O)c2cc(Cl)cc(Cl)c2)n1C)c1cccnc1

1.73
1.05
1.73
1.93
1.10
1.40
1.99
2.53

This collection of values is drawn from patent US10368545B2.
